Reference source: patent US10822339B2

- METHOD DESCRIPTION: Pharmacokinetic experiments in Beagles
- Format: in vivo
- RUN CONDITIONS: both sexes, beagle, dog, plasma, oral, 10 mg/kg, single administration, read-out: Terminal t1/2 (converted)
QUANTITY MEASURED: half-life (h)
Please state the figure in h; there is no need to write the unit.

What half-life value was documented for this molecule, CCS(=O)(=O)N1CCC(CC#N)(n2cc(-c3ncnc4[nH]ccc34)cn2)CC1 [Compound of formula Ia] ?
5.79

----------
- METHOD DESCRIPTION: Pharmacokinetic experiments in Beagles
- Format: in vivo
- RUN CONDITIONS: both sexes, beagle, dog, plasma, intravenous injection, 5 mg/kg, single administration, read-out: Vss
QUANTITY MEASURED: Vd (L/kg)
Please state the figure in L/kg; there is no need to write the unit.

What Vd value was documented for this compound, CCS(=O)(=O)N1CCC(CC#N)(n2cc(-c3ncnc4[nH]ccc34)cn2)CC1 [Compound of formula Ia] ?
1.85

----------
- METHOD DESCRIPTION: Pharmacokinetic experiments in Beagles
- Type: in vivo
- RUN CONDITIONS: both sexes, beagle, dog, plasma, oral, 10 mg/kg, single administration
QUANTITY MEASURED: Tmax
I'd appreciate it if you included the unit after the number.

What Tmax value was documented for this compound, CCS(=O)(=O)N1CCC(CC#N)(n2cc(-c3ncnc4[nH]ccc34)cn2)CC1 [Compound of formula Ia] ?
15 min

----------
- METHOD DESCRIPTION: Pharmacokinetic experiments in Beagles
- Assay type: in vivo
- RUN CONDITIONS: both sexes, beagle, dog, plasma, intravenous injection, 5 mg/kg, single administration, read-out: Terminal t1/2 (converted)
QUANTITY MEASURED: half-life (h)
Please state the figure in h; there is no need to write the unit.

What half-life value was documented for this compound, CCS(=O)(=O)N1CCC(CC#N)(n2cc(-c3ncnc4[nH]ccc34)cn2)CC1 ?
4.78

----------
- ASSAYED TARGET: JAK1 (Homo sapiens, UniProt P23458)
- Sequence (P23458 whole entry): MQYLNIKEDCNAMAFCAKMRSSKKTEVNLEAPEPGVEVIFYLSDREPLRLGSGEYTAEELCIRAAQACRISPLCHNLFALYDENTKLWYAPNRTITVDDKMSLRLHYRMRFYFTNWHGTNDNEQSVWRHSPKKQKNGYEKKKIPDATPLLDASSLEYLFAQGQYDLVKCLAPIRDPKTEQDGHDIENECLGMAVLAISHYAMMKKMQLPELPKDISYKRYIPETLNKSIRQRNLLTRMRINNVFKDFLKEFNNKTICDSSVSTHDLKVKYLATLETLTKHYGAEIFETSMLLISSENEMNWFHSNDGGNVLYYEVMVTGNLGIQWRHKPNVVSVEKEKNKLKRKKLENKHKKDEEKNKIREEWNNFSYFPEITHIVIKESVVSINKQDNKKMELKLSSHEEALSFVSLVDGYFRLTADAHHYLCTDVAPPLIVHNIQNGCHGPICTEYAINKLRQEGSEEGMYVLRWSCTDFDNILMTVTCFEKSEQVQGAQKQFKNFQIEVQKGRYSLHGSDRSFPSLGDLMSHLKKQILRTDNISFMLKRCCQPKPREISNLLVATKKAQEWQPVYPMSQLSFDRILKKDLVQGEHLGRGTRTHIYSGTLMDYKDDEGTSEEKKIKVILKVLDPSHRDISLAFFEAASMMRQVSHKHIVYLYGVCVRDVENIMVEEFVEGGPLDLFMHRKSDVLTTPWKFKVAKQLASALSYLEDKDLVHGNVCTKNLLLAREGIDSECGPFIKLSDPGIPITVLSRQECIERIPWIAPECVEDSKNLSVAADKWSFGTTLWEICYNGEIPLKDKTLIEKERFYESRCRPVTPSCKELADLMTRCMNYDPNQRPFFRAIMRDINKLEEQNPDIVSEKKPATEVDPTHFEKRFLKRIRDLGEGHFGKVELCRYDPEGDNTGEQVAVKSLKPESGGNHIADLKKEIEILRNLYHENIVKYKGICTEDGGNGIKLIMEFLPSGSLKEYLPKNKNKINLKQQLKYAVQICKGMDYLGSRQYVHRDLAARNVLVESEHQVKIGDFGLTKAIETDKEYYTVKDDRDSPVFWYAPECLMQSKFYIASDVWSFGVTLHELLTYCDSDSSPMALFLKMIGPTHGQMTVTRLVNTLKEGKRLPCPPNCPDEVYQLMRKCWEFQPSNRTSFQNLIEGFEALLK
- METHOD DESCRIPTION: Enzyme activity inhibition, Caliper Mobility Shift Assay
- Format: biochemical
- RUN CONDITIONS: read-out: Kinase inhibitory activity (IC50, nM) JAK1
QUANTITY MEASURED: IC50 (nM)
Please state the figure in nM; there is no need to write the unit.

What IC50 value was documented for this compound, CCS(=O)(=O)N1CCC(CC#N)(n2ccc(-c3ncnc4[nH]ccc34)c2)CC1 [Compound of formula Ib] ?
31

----------
- METHOD DESCRIPTION: Pharmacokinetic experiments in Beagles
- Format: in vivo
- RUN CONDITIONS: both sexes, beagle, dog, plasma, oral, 10 mg/kg, single administration
QUANTITY MEASURED: AUC(0-t)
I'd appreciate it if you included the unit after the number.

What AUC(0-t) value was documented for this molecule, CCS(=O)(=O)N1CCC(CC#N)(n2cc(-c3ncnc4[nH]ccc34)cn2)CC1 ?
10600 ng·h/mL

----------
- ASSAYED TARGET: JAK3 (Homo sapiens, UniProt P52333)
- Sequence (P52333 whole entry): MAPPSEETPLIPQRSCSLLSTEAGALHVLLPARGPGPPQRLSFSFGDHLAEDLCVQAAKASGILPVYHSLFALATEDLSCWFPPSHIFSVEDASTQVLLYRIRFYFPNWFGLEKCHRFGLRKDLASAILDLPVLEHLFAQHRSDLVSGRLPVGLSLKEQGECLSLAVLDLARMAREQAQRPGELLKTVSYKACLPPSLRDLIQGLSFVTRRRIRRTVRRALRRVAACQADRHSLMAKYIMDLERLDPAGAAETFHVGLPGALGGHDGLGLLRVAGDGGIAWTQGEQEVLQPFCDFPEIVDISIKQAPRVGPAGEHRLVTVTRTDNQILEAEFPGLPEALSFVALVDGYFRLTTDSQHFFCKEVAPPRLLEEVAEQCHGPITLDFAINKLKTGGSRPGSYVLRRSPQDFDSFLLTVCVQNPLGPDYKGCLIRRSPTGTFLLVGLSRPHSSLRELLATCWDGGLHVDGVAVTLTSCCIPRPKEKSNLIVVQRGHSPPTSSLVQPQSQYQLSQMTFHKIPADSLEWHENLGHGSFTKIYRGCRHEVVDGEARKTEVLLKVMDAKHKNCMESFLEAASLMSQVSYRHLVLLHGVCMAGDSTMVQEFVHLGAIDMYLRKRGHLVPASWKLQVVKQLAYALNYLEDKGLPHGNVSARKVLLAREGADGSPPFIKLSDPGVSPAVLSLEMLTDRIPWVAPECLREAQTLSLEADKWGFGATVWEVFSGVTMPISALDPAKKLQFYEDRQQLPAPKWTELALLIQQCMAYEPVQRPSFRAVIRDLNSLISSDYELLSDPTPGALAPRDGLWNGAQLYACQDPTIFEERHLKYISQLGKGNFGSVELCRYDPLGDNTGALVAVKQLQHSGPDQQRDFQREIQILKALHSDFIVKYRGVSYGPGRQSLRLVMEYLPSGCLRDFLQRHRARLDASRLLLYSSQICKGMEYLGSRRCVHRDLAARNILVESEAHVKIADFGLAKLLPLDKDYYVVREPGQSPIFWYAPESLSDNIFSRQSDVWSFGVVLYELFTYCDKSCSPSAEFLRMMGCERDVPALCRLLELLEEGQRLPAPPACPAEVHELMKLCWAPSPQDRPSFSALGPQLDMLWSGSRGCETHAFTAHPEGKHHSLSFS
- METHOD DESCRIPTION: Enzyme activity inhibition, Caliper Mobility Shift Assay
- Type: biochemical
- RUN CONDITIONS: read-out: Kinase inhibitory activity (IC50, nM) JAK3
QUANTITY MEASURED: IC50 (nM)
Please state the figure in nM; there is no need to write the unit.

What IC50 value was documented for this compound, CCS(=O)(=O)N1CCC(CC#N)(n2cc(-c3ncnc4[nH]ccc34)cn2)CC1 ?
27

----------
- METHOD DESCRIPTION: Pharmacokinetic experiments in Beagles
- Type: in vivo
- RUN CONDITIONS: both sexes, beagle, dog, plasma, intravenous injection, 5 mg/kg, single administration
- Procedure: Experimental animals: Beagles, male and female; body weight: 7-9 kg; Preparation of test samples: the compound (Ia) of the present invention was formulated into 2.5 mg/mL (for intravenous administration) and 2.0 mg/mL (for oral administration) for use. Routes of administration: oral/intravenous injection. Dosing capacity and frequency: 2 mL/kg (intravenous injection) or 5 mL/kg (oral), single administration. […]
QUANTITY MEASURED: AUC(0-t) (ng·h/mL)
Please state the figure in ng·h/mL; there is no need to write the unit.

What AUC(0-t) value was documented for this molecule, CCS(=O)(=O)N1CCC(CC#N)(n2cc(-c3ncnc4[nH]ccc34)cn2)CC1 [Compound of formula Ia] ?
10900
